test system: Mycobacterium tuberculosis; experiment: Antimycobacterial activity against Mycobacterium tuberculosis H37Rv ATCC 27294 assessed as inhibition of mycobacterial growth incubated for 2 weeks by MABA method; assay type: functional

{"Molecule": "CCCCCCCCCCCCCCCCCC(=O)Oc1ccc(C[C@H](C)[C@H](C)Cc2ccc(O)c(OC)c2)cc1OC (racemic)", "-logMIC": 3.84}
{"Molecule": "COc1cc(C[C@@H](C)[C@@H](C)Cc2ccc(OC(C)=O)c(OC)c2)ccc1OC(C)=O", "-logMIC": 4.23}
{"Molecule": "COc1cc(C[C@@H](C)[C@@H](C)Cc2ccc(OC(=O)c3cnccn3)c(OC)c2)ccc1O (racemic)", "-logMIC": 4.07}
{"Molecule": "COc1cc(C[C@@H](C)[C@@H](C)Cc2ccc(OC(=O)c3ccccn3)c(OC)c2)ccc1OC(=O)c1ccccn1", "-logMIC": 3.92}
